Hello, the source for this data is paper PMC7733455, in case you need it.

assay: Liver microsome metabolism assay, human; type: in vitro ADME; conditions: human liver microsomes; read-out: T1/2 in liver microsomes
quantity_name: half-life at 1 µM

The compound listed as Cl.Cn1cc(CN2CCC3(CCN(c4ncc(C(=O)NO)cn4)C3)C2)c2cc(C#N)ccc21 (stereo not shown) shows half-life at 1 µM equal to 8.68 h

----------
assay: In vitro cytotoxicity analysis (CellTiter-Glo), HepG2; conditions: human, HepG2 cells
quantity_name: log10 EC50 at 72 h (log10 of the value in nM)
Recall that a logarithmic scale is used here: each number is log10 of EC50 at 72 h in nM.

The molecule listed as Cl.Cn1cc(CN2CCC3(CCN(c4ncc(C(=O)NO)cn4)C3)C2)c2cccnc21 (stereo not shown) [JX21130] shows log10 EC50 at 72 h equal to 3.07

The molecule listed as Cl.Cn1cc(CN2CC3(CCN(c4ncc(C(=O)NO)cn4)CC3)C2)c2ccccc21 [JX21014] shows log10 EC50 at 72 h equal to 2.54

The molecule listed as Cl.O=C(NO)c1cnc(N2CCC3(CCN(Cc4c5ccccc5cc5ccccc45)C3)C2)nc1 (stereo not shown) [JX21138] shows log10 EC50 at 72 h equal to 3.12

The molecule listed as Cn1cc(CNCC2CCN(c3ncc(C(=O)NO)cn3)CC2)c2ccccc21 [Quisinostat, reference compound] shows log10 EC50 at 72 h equal to 1.68

The molecule listed as Cl.O=C(NO)c1cnc(N2CCC3(CCN(Cc4cc5ccccc5s4)C3)C2)nc1 (stereo not shown) [JX21118] shows log10 EC50 at 72 h equal to 3.22

The molecule listed as Cl.O=C(NO)c1cnc(N2CCC3(CCN(Cc4cc5ccccc5o4)C3)C2)nc1 (stereo not shown) [JX21117] shows log10 EC50 at 72 h equal to 3.21

The molecule listed as Cl.Cn1cc(CN2CC3CN(c4ncc(C(=O)NO)cn4)CC3C2)c2ccccc21 (stereo not shown) [JX21002] shows log10 EC50 at 72 h equal to 2.11

The molecule listed as CN(c1ncc(C(=O)NO)cn1)C1CCN(Cc2cn(C)c3ccccc23)CC1.Cl [JX21006] shows log10 EC50 at 72 h equal to 1.57

The molecule listed as Cl.Cn1cc(CN2CCC3(CCN(c4ncc(C(=O)NO)cn4)C3)C2)c2cc(C#N)ccc21 (stereo not shown) [JX21108] shows log10 EC50 at 72 h equal to 3.58

The molecule listed as Cl.Cn1cc(CN2CCC3(CCN(c4ncc(C(=O)NO)cn4)C3)C2)c2cc(Br)ccc21 (stereo not shown) [JX21141] shows log10 EC50 at 72 h equal to 2.47
